- System: HT29 colon
- experimentNotes: NCI-60 one-dose screen, 48 h (100 = growth as untreated, 0 = no growth, -100 = all killed)
- details: 10 µM unless noted
This is part of a sample that, as a whole, favours compounds with a hit. Of some 83,000 tested, about 20% had one in any assay. Active and inactive are the calls of the source. Rule for the calls: active = growth percent below 10; inactive = the rest.
Listed below: growth values for each entry.

Known growth results, listed for orientation:
>>> df
                                   compound               assayresult
0  COc1ccc(/C=C2\COc3ccc(O)c(O)c3C2=O)c(OC)c1          73.6% (inactive)
1   NS(=O)(=O)c1cn(-c2ncnc3nc[nH]c23)ccc1=O           101% (inactive)
2  O=C(O)CC1Sc2ccccc2NC1=O (centres undefined)           129% (inactive)
3  Cn1cc(-c2ccc3ncc(-c4ccc(CC(=O)Nc5cc(C(C)(C)C)nn5C)cc4)cc3c2)cn1  36.5% [30 µM] (inactive)
4  CN1C[C@@H](c2ccc(Cl)cc2)[C@]2(NC(=S)N(c3ccccc3)C2=O)[C@@]12C(=O)NC1C=CC(Br)=C[C@H]12 (some centres undefined)          61.5% (inactive)
5  Cc1ccc(Nc2ccc(Nc3ccc(C)cc3S(=O)(=O)O)c3c2C(=O)c2ccccc2C3=O)c(S(=O)(=O)O)c1          98.4% (inactive)
6  C[C@@H]1CC[C@@H]2[C@@H]1[C@H](OC(=O)c1ccc3ccccc3c1)[C@]1(C3CCCCC3)C[C@@H](OC(=O)CO)[C@@]2(C)O1          20.7% (inactive)
7  CCOC(=O)c1sc2ccc(NCc3nc[nH]c3C)cc2c1NC(=O)c1cc(OC)c(OC)c(OC)c1          88.9% (inactive)

Kindly review the next compound as well.
Query: Reported growth, compound COc1ccc(-n2nnc(C(=O)NCCc3c[nH]c4ccc(F)cc34)c2C)cc1 : ____
Reply: 86.4% (inactive)

----------
- Tested on: LOX IMVI melanoma
- experimentNotes: NCI-60 one-dose screen, 48 h (100 = growth as untreated, 0 = no growth, -100 = all killed)
- details: 10 µM unless noted
Compounds without any hit were thinned out: in the full panel of roughly 83,000, 20% have a hit.
Recorded growth determines the label; the label ranges are low value: < 40%; medium value: ≥ 40% and < 90%; high value: ≥ 90%

See these solved cases before continuing.
compound	assignedClass
CC/C=C/[C@@H]1C=C[C@@H]2CCC[C@H]2[C@@H]1CC[C@H](O)[C@H](C)N	low value
C#C[C@]1(O)CC[C@H]2[C@@H]3CC=C4c5sc(N=C(N)N)nc5CC[C@]4(C)[C@H]3CC[C@@]21C	low value
N=C(N)c1ccc(-c2ccc(-c3ccc(Cl)c(Cl)c3)o2)cc1	low value

Query: Hello team, could you let me know which band the following compound falls into: O=C(c1ccccc1)c1ccc(N2C(=O)C3C4c5ccccc5C(/C=C/C(=O)c5ccccn5)(c5ccccc54)C3C2=O)cc1 (stereo unspecified)
Reply: low value

Query: For the record CCNCCNc1cc(-c2ccc(Cl)cc2)c(C#N)c2nc3ccccc3n12 , report the class its growth corresponds to.
Reply: low value

Query: Which category does the recorded growth put COc1cc2c(cc1OC)-c1ccc3cc4c(cc3c1N(CCN1CCCC1)C2)OCO4 in?
Reply: low value

Query: Record O=C1c2ccccc2C(=O)c2cc(Cn3cc[n+](Cc4ccc5ccccc5c4)c3)ccc21 — which class?
Reply: high value

All values here come from PubChem BioAssay (NCI).
